# Experimental System: humTRPA1 (Homo sapiens)
# Construct: human TRPA1; cRNA-injected Xenopus laevis oocytes (electrophysiology as for insect TRPA1s)
# Sequence (O75762 whole entry): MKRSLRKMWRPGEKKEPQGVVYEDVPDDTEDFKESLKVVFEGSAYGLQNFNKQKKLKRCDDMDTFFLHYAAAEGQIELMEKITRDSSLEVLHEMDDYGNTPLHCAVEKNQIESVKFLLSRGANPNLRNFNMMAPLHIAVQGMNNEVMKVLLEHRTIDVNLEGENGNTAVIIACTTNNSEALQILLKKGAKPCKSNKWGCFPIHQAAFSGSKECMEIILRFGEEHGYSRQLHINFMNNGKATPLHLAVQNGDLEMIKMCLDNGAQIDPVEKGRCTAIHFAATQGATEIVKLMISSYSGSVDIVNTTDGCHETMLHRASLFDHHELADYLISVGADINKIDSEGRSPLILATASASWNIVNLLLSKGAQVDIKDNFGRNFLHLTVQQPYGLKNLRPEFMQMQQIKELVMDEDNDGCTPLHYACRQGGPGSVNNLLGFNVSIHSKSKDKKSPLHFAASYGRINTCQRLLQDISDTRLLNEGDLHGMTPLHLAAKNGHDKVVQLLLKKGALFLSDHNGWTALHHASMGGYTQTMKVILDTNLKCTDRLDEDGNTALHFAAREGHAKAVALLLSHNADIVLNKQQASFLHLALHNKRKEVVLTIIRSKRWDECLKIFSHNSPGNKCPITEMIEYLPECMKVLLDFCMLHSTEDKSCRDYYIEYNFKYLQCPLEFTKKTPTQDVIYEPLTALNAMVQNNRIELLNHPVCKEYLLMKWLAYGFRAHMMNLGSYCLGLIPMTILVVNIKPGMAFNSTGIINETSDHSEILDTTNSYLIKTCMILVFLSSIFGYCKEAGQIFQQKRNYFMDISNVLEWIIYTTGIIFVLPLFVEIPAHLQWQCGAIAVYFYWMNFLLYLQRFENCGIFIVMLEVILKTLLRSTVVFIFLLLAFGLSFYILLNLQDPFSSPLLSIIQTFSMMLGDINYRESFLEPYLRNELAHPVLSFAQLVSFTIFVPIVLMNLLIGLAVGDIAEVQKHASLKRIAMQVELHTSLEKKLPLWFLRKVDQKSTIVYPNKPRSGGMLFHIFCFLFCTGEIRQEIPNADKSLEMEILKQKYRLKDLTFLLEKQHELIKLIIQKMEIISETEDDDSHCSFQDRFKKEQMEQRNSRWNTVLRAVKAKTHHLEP
# Assay Remarks: two-electrode voltage clamp, Xenopus oocytes

Compound	EC50 [µM]
CN1C(=O)C=CC1=O [N-methyl maleimide]	5.1

----------
# Experimental System: agTRPA1(B) (Anopheles gambiae, UniProt B3G3I7)
# Construct: isoform with TRPA1(B)-type N-terminus and exon6a-encoded BAT; cRNA-injected Xenopus laevis oocytes
# Sequence (B3G3I7 1-1248): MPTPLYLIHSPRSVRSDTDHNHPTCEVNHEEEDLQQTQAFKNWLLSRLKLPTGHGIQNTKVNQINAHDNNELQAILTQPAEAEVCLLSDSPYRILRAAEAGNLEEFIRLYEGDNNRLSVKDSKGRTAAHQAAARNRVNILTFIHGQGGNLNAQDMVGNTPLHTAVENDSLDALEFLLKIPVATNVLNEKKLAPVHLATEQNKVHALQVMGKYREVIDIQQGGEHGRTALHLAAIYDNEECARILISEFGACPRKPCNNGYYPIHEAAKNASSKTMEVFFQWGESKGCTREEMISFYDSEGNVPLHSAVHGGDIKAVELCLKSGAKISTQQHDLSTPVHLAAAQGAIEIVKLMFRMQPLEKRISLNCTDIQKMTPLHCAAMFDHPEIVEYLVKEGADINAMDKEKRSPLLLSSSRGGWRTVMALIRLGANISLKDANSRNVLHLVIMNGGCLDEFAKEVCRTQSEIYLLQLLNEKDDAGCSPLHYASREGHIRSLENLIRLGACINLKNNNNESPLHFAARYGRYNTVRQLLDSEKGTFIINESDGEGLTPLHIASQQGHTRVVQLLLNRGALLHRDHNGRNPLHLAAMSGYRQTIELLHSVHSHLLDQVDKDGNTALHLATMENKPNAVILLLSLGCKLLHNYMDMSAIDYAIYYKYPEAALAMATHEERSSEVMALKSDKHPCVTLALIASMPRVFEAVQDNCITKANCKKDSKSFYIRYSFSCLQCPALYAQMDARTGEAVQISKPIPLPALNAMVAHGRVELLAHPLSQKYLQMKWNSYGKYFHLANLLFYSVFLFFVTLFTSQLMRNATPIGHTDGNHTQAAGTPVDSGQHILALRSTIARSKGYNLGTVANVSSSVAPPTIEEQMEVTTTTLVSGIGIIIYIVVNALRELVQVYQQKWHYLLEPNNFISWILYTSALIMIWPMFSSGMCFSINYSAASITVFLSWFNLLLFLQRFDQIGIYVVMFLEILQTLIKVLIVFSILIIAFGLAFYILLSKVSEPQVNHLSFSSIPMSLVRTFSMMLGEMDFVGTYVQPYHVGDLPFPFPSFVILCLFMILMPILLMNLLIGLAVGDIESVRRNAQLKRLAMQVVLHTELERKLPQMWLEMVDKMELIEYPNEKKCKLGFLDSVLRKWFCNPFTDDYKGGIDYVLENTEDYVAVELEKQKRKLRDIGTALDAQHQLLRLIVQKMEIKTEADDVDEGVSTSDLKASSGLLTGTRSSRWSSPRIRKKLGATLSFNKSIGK
# Assay Remarks: two-electrode voltage clamp, Xenopus oocytes
Endpoint Name: EC50 (µM)

Compound	Endpoint Name	Result Value
CN1C(=O)C=CC1=O [N-methyl maleimide]	EC50	39.5
